- ASSAY_PROTOCOL: Phase I pharmacokinetic clinical trial: TAD vs IVAD of cefazolin and metronidazole (TISF and serum)
- TEST_CONTEXT: human, in vivo, 500 mg, Cmax in tumescent interstitial fluid, TAD solution containing 500 mg of metronidazole
MEASURED_METRIC: Cmax (µg/mL)

- Cc1ncc([N+](=O)[O-])n1CCO [Metronidazole]: 370
